# Test system: PPARg homodimer (NR concentration 180 nM)
# test_method_notes: PBM binding z-score (relative to random genomic background probes); higher = stronger binding; sequences stand for … in GC…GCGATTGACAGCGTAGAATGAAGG
PBM binding z-score class ranges: 1 = under 0.3, 2 = from 0.3 up to 2, 3 = 2 and over

INSERT INTO assay_data (chain_sequence, assigned_category) VALUES
  ('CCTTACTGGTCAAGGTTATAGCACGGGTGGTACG', 2),
  ('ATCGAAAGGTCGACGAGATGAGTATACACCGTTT', 2),
  ('AGAATGAGGTTACCAAAGATCACGGAAACGCTTG', 2),
  ('CGTAGTTGGTCAAGGTCACACACGCTATAGGTAC', 3),
  ('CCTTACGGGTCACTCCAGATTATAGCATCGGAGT', 2),
  ('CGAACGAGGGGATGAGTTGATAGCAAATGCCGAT', 1),
  ('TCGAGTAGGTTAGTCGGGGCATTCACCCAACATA', 1),
  ('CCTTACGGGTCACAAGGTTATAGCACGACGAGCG', 3),
  ('CGTCCAAGGTCAATGCTAGGTCAGTGTAAGCATT', 3),
  ('GCTCGGAGGACAAGGTCTGAGCTTTGTCCGTAGA', 1),
  ('TAGCCTAGGTCAGAACGGGCCAGTATACGCTATA', 1),
  ('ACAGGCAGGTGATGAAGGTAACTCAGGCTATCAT', 1);
